The following compounds are listed with their measured growth values.
System: 786-0 renal
Assay Overview: NCI-60 one-dose screen, 48 h (100 = growth as untreated, 0 = no growth, -100 = all killed)
Condition Notes: 10 µM unless noted
About 83,000 compounds went through this panel and 20% of them were active in at least one assay; those are over-represented in the sample as a whole.
Give the number; % is assumed, so skip it.

Completed entries (count: 6):
Given O=C(O)c1ccc(-n2cc(/C=N/Nc3ccccc3F)c(-c3ccc(O)cc3)n2)cc1 , state its recorded growth.
84

Given FC(F)(F)c1cccc([Si](F)(c2cccc(C(F)(F)F)c2)c2cccc(C(F)(F)F)c2)c1 , state its recorded growth.
50.5

Given NC(=S)NNC1CCCCC1 , state its recorded growth.
99.3

Given CNCCCOc1c(Br)cc(CCNC(=O)/C(Cc2ccc(OC)c(Br)c2)=N/O)cc1Br , state its recorded growth.
40.6

Given C=C1C(=O)O[C@H]2[C@H]1CC/C(COC(=O)c1ccccc1)=C\CC[C@@]1(C)O[C@@H]21 , state its recorded growth.
-59.2

Given CSc1ccc(C(=O)C[n+]2cccc(C)c2)cc1 , state its recorded growth.
100

---
Given COc1ccc(-n2c(-c3ccc(NC(=O)CCCl)cc3)nnc2-c2cc(OC)c(OC)c(OC)c2)cc1 , state its recorded growth.
75.4

Given O=c1c2ccccc2sc2c(N3CCCC3)nc3ccccc3c12 , state its recorded growth.
102

Given COc1cc2ncn3c(=O)c4c5c(sc4nc3c2cc1OC)CCCCC5 , state its recorded growth.
106

Given CCCCCCCCCCCCCCCCCCNCc1ccc(Cl)cc1 , state its recorded growth.
-75.1

Given CC(=O)Cc1cccnc1 , state its recorded growth.
103

* * *

System: K-562 leukemia
Assay Overview: NCI-60 one-dose screen, 48 h (100 = growth as untreated, 0 = no growth, -100 = all killed)
Condition Notes: 10 µM unless noted
About 83,000 compounds went through this panel and 20% of them were active in at least one assay; those are over-represented in the sample as a whole.
Assign class by growth: not lower than 70% means 1.0; lower than 70% means 0.0.

Previously resolved entries follow.
Does the compound Cc1cccc[n+]1CCC[n+]1ccccc1C have recorded growth that is 70% or more?
1.0

Does the compound CC(C)C1(C(C)C)NC(=O)NC1=O have recorded growth that is 70% or more?
1.0

Does the compound CCOC(=O)c1noc2c1CCc1c-2cn(Cc2ccc(OC)cc2)c1-c1cc(OC)c(OC)c(OC)c1 have recorded growth that is 70% or more?
0.0

Does the compound COc1ccccc1N1CCN(CC(O)COc2c(Br)c(Br)c(Br)c3c2OC(C)(C)C3)CC1 (centres undefined) have recorded growth that is 70% or more?
0.0

Does the compound COc1ccc(C(=O)NC(=O)Nc2ccc3c(c2)NC(=O)/C3=C\c2[nH]c(C)c(C(=O)O)c2C)c(F)c1 have recorded growth that is 70% or more?
0.0

Does the compound CC(=O)CC/C=C(\C)[C@H](O)[C@H](C)C(=O)O[C@H]1C[C@H](C)C=C2C=C[C@@]3(C)O[C@@H](O)CC(=O)[C@]3(C)[C@H]21 have recorded growth that is 70% or more?
0.0

Does the compound COC(OC)C1(c2ccccc2)NC(=O)NC1=O (centres undefined) have recorded growth that is 70% or more?
1.0

Does the compound Cc1ccc(Cn2cc(COc3ccc4c5ccnc(C)c5n(CCCc5ccccc5)c4c3)nn2)cc1 have recorded growth that is 70% or more?
0.0

---
Does the compound COc1ccc(C(=O)NC(=O)Nc2ccc3c(c2)NC(=O)/C3=C\c2[nH]c(C)c(C(=O)O)c2C)cc1 have recorded growth that is 70% or more?
1.0

Does the compound Fc1ccc(Nc2ncnc3ccc(-c4cn[nH]c4)cc23)cc1Cl have recorded growth that is 70% or more?
0.0

Does the compound COc1ccc(-c2nn(-c3ccc(NC(=O)c4cc(Cl)cc(Cl)c4)cc3)cc2-c2ccncc2)cc1Cl have recorded growth that is 70% or more?
0.0

Does the compound CCCCCCCCCCCCCCCCNc1ccccc1 have recorded growth that is 70% or more?
1.0

Does the compound CC(/C=C/C=C(\C)[C@H](O)[C@H](C)C(=O)O[C@H]1C[C@H](C)C=C2C=C[C@@]3(C)O[C@@H](O)CC(=O)[C@]3(C)[C@H]21)=C\C=C\C(=O)O have recorded growth that is 70% or more?
0.0

Does the compound O=C(COc1ccc(Cl)cc1)N1CCN(Cc2ccc3c(c2)OCO3)CC1 have recorded growth that is 70% or more?
1.0

Does the compound COc1ccc2c(c1)O/C(=C/c1ccc(OCC(=O)Nc3ccc(S(N)(=O)=O)cc3)cc1)C2=O have recorded growth that is 70% or more?
1.0

* * *

Tested on: HT29 colon
Assay Overview: NCI-60 one-dose screen, 48 h (100 = growth as untreated, 0 = no growth, -100 = all killed)
Condition Notes: 10 µM unless noted
This is part of a sample that, as a whole, favours compounds with a hit. Of some 83,000 tested, about 20% had one in any assay.
Readout Type: growth (%)
Give the number; % is assumed, so skip it.

Given CC(/C=C/C=C(\C)[C@H](O)[C@H](C)C(=O)O[C@H]1C[C@H](C)C=C2C=C[C@@]3(C)O[C@@H](O)CC(=O)[C@]3(C)[C@H]21)=C\C=C\C(=O)O , state its recorded growth.
0.326

Given C=C1C(=O)O[C@H]2[C@H]1CC/C(C(=O)NCCOCCOCC(=O)Nc1ccc(OC)c(C(N)=O)c1O)=C\CC[C@@]1(C)O[C@@H]21 , state its recorded growth.
88.1

Given COc1ccc2c(c1)OC(N)=C(C#N)C2c1ccc(F)cc1 (centres undefined) , state its recorded growth.
5.87

---
Given CCOC(=O)C1CN(Cc2ccccc2)C(=O)C1=O (centres undefined) , state its recorded growth.
115

* * *

Test system: MCF7 breast
Assay Overview: NCI-60 one-dose screen, 48 h
Condition Notes: 10 µM unless noted
About 83,000 compounds went through this panel and 20% of them were active in at least one assay; those are over-represented in the sample as a whole. Activity calls are given as the source filed them. Rule for the calls: active = growth percent below 10; inactive = the rest.
Give your call using only these classes: active, inactive

Previously resolved entries follow.
Query: recorded result category for C=CCn1c(SCC(=O)Nc2ccc(C(=O)/C=C/c3cc(OC)c(OC)c(OC)c3)cc2)nnc1-c1ccc(OC)cc1 in this test
active

Query: recorded result category for c1ccc(OCC[P+](c2ccccc2)(c2ccccc2)c2ccccc2)cc1 in this test
inactive

Query: recorded result category for COc1ccc(/C=C/C(=O)c2ccc(Oc3ncnc4ccccc34)cc2)cc1OC in this test
active

---
Query: recorded result category for O=C(CSc1nnc(-c2cc3c([nH]c4ccccc43)c(-c3cccc(O)c3)n2)n1-c1ccccc1)c1ccccc1 in this test
inactive

Query: recorded result category for Fc1ccc(Nc2ncnc3ccc(-c4cn[nH]c4)cc23)cc1Cl in this test
inactive

Query: recorded result category for CC(CCC(=O)O)[C@H]1CCC2C3C(=O)C[C@@H]4CC(=O)CC[C@]4(C)C3CC(=O)[C@@]21C (some centres undefined) in this test
inactive

Query: recorded result category for CC(C(=O)O)N1C(N)=NNC1c1ccccc1O (centres undefined) in this test
inactive

Query: recorded result category for CCOC(=O)c1cnc2c(OC)ccc(OC)c2c1Cl in this test
inactive

Query: recorded result category for COc1ccc(-c2ccc(NC(=O)Nc3cccc(C(F)(F)F)c3)c(C)n2)cc1 in this test
inactive

Query: recorded result category for CN(C)C(=O)Nc1nc2cc(Cl)c(Cl)cc2[nH]1 in this test
inactive

* * *

System: COLO 205 colon
Assay Overview: NCI-60 one-dose screen, 48 h (100 = growth as untreated, 0 = no growth, -100 = all killed)
Condition Notes: 10 µM unless noted
Protocol: Cells are grown in 96 well plates and exposed to the test compound for 48 hours. Compounds are tested at a single concentration, which is 10^-5 M for most compounds. The reported endpoint is percent growth (GI% or GIPRCNT), where numbers from 0 - 100% represent growth inhibition, and numbers from -100% - 0 represent cell death. For example, a value of 40 represents 60% growth inhibition. A value of 0 means no net growth occurred over the course of the experiment. […]
This is part of a sample that, as a whole, favours compounds with a hit. Of some 83,000 tested, about 20% had one in any assay.
Readout Type: growth (%)
Give the number; % is assumed, so skip it.

Completed entries (count: 4):
Given COc1ccc(-c2nn(-c3ccc(NC(=O)Nc4ccc(Cl)c(C(F)(F)F)c4)cc3)cc2-c2ccncc2)cc1Cl , state its recorded growth.
-74.5

Given Nc1nc(=S)ss1 , state its recorded growth.
112

Given O=[N+]([O-])c1ccc(NS(=O)(=O)c2cc(Cl)ccc2Cl)c2ccccc12 , state its recorded growth.
73.6

Given FC(F)(F)c1cn(CC2CNC2)c2ncnc(Cl)c12 , state its recorded growth.
106

---
Given COc1ccc(-n2c(-c3ccc(NC(=O)CCCl)cc3)nnc2-c2cc(OC)c(OC)c(OC)c2)cc1 , state its recorded growth.
8.54

Given O=c1cc(Cl)[nH]c(=O)[nH]1 , state its recorded growth.
97.5
